The sequences listed here are annotated with their switch fluorescence ratio.
test system: ATP; experiment: switch fluorescence ratio, 500 uM ATP over buffer (Cy3 cluster intensity, sum of 5 cycles each) (fold (ratio)); higher = stronger signal-on switching upon ATP binding; sequences stand for … in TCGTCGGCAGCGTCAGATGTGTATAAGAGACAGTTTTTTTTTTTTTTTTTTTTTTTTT…TC; settings: aptamer strand: ATP DNA aptamer (quencher-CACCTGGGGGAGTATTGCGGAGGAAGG + anchor), 100 nM annealed; ATP concentration: 500 uM;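 note: ATP exposure 15 min at 22 °C before imaging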
PROPERTY_MEASURED: switch fluorescence ratio

>>> obs_value("TCATTTAGAG")
0.977
>>> obs_value("GTCAAATGGT")
0.972
>>> obs_value("AGAGTAAAGT")
0.98
>>> obs_value("CGGGGTGCCT")
0.999
>>> obs_value("TTTGGTAGGG")
1.02
>>> obs_value("CAATGCGGTA")
0.976
>>> obs_value("AAAATGCAG")
0.986
>>> obs_value("AAAGAAATTG")
1.01
>>> obs_value("CCTTGGTGAG")
1.01
>>> obs_value("CTCGAGAGCT")
0.973
>>> obs_value("TTAATGCTAA")
0.99
>>> obs_value("ATGTAAATGC")
0.995
>>> obs_value("AGTGATGCTT")
0.992
>>> obs_value("CGTGGTGGCT")
0.989
>>> obs_value("GACAATTTCT")
1.02
>>> obs_value("CCAAGGGAAA")
0.982
>>> obs_value("AGCTTATGTT")
0.985
>>> obs_value("GGGGGCAACA")
0.973
>>> obs_value("GAGATAGTAG")
1
>>> obs_value("CGCTGAATTT")
0.975
>>> obs_value("ATGGGGGAGC")
0.981
>>> obs_value("ACGTCAGTTG")
0.975
>>> obs_value("TCGTTAAATT")
0.988
>>> obs_value("TTAAAGGATT")
1.01
>>> obs_value("GGAGTCGTTA")
1
>>> obs_value("GGATTAGCGA")
0.975
>>> obs_value("AGCGACGGTT")
0.982
>>> obs_value("AGAAAATTGG")
1.01
>>> obs_value("CGATACTTGA")
0.99
>>> obs_value("TGAGTTCGTA")
1.02
>>> obs_value("TTTGTTATGT")
0.988
>>> obs_value("CATTGAAGTG")
0.986
>>> obs_value("CAGAGGATCA")
0.996
>>> obs_value("ATATATGGGG")
0.987
>>> obs_value("TGAGTGGATG")
0.971
>>> obs_value("TAACGTGTTT")
1
>>> obs_value("TTTTTAAGTC")
0.985
>>> obs_value("ACAAGAGGTT")
0.995
>>> obs_value("AGAGGCATCG")
0.994
>>> obs_value("TTAGGTTCAG")
0.977
>>> obs_value("CGGGGAAGTG")
1
>>> obs_value("CAGTCTGGTA")
0.997

* * *

tested on: ATP; test: switch fluorescence ratio, 500 uM ATP over buffer (Cy3 cluster intensity, sum of 5 cycles each) (fold (ratio)); higher = stronger signal-on switching upon ATP binding; sequences stand for … in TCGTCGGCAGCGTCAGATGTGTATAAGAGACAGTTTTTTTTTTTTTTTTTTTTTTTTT…TC; details: aptamer strand: ATP DNA aptamer (quencher-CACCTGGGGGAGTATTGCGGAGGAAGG + anchor), 100 nM annealed; ATP concentration: 500 uM;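 note: ATP exposure 15 min at 22 °C before imaging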
PROPERTY_MEASURED: switch fluorescence ratio

>>> obs_value("TTGCCACTGA")
1.02
>>> obs_value("TTGTGTAAGC")
1.01
>>> obs_value("TTTTGAGAGA")
1.11
>>> obs_value("GGGGTGGAGG")
1.02
>>> obs_value("TAGGTCTGTG")
0.987
>>> obs_value("TGGGCTCCTT")
1
>>> obs_value("AAAGCTCACC")
1.12
>>> obs_value("CGCTTGTTCG")
1.01
>>> obs_value("ACATGGTAGT")
0.97
>>> obs_value("ATTTTGGAGG")
0.991
>>> obs_value("AGGAAATTTG")
0.994
>>> obs_value("AAGTAAGTAG")
1.01
>>> obs_value("GGTGGAATGT")
0.983
>>> obs_value("GATGTACAGT")
1.03
>>> obs_value("GGTAAAAAAG")
1
>>> obs_value("ATGGTAGCTT")
1
>>> obs_value("GAGGGCCTGA")
1.01
>>> obs_value("GGGGGCAGCT")
1
>>> obs_value("AGGATGGTGG")
1.02
>>> obs_value("TATTTGAATC")
1.15
>>> obs_value("CAAATAATAG")
0.977
>>> obs_value("TTACCGGCGC")
1.14
>>> obs_value("CGTTTGGCGT")
1.12
>>> obs_value("TTTGCGCCGT")
1.02
>>> obs_value("CAGATGGGGA")
1.01
>>> obs_value("GGGACAAACC")
1.02
>>> obs_value("AAGTACTTGA")
1.12
>>> obs_value("CTTTATATGG")
0.96
>>> obs_value("ACGGCCAAGG")
1.05
>>> obs_value("AGGGGGCTCT")
1.02
>>> obs_value("TTAATAAGAC")
1.04
>>> obs_value("TTTTTGTTGG")
1

Source of measurements: the supplement of paper PMC10126150
